Tested on: Escherichia coli TOP10;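 note: peptides expressed intracellularly from a pBAD plasmid library in pooled LB shake-flask culture, induced with 0.3% L-arabinose, DNA abundance read by NGS, three biological replicates, DESeq2 with apeglm shrinkage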
Test: shrunken log2 fold change of peptide-encoding DNA abundance (4.5 h post-induction vs induction); higher = less antimicrobial activity (less host growth inhibition)
Settings: time post-induction: 4.5 h; library: site-saturation at positions 5, 18, 19, 20
Reported Property: shrunken log2 fold change
Field format: numeric only.

Some solved entries appear below for comparison.
RRIRTRPPRLPRPRPRPIGLPRP : -0.115
RRIRPRPPRLPRPRPRPEGMPRP : 0.305
RRIRFRPPRLPRPRPRPEGTPRP : 0.055
RRIRQRPPRLPRPRPRPEINPRP : -0.15
RRIRIRPPRLPRPRPRPELQPRP : -0.0107

Which shrunken log2 fold change value is on record for RRIRLRPPRLPRPRPRPPLFPRP ?
0.412

Which shrunken log2 fold change value is on record for RRIRQRPPRLPRPRPRPQMNPRP ?
-0.72
